# test name: AUC (0 to 24 hrs) in Sprague-Dawley rat at 10 mg/kg, po
# Type: ADME, organism-based
# Design: time < 24 hr, dose 10 mg/kg, route oral
# conditions used: plasma
value kind: AUC(0-t) at 24 h (ng·h/mL)

P = COc1cc2nccc(Oc3ccc4c(C(=O)Nc5cccnc5)cccc4c3)c2cc1OC
Q = COc1cc2nccc(Oc3ccc4c(C(=O)Nc5ccncc5)cccc4c3)c2cc1OC
Looking at recorded values for AUC(0-t) at 24 h, does P or Q come in lower? Mark your answer with the label of the selected entry.
Q
(Q: 11000 ng·h/mL, P: 27100 ng·h/mL)

---

# tested target: Macrophage colony-stimulating factor 1 receptor (Homo sapiens)
# Sequence (P07333 whole entry): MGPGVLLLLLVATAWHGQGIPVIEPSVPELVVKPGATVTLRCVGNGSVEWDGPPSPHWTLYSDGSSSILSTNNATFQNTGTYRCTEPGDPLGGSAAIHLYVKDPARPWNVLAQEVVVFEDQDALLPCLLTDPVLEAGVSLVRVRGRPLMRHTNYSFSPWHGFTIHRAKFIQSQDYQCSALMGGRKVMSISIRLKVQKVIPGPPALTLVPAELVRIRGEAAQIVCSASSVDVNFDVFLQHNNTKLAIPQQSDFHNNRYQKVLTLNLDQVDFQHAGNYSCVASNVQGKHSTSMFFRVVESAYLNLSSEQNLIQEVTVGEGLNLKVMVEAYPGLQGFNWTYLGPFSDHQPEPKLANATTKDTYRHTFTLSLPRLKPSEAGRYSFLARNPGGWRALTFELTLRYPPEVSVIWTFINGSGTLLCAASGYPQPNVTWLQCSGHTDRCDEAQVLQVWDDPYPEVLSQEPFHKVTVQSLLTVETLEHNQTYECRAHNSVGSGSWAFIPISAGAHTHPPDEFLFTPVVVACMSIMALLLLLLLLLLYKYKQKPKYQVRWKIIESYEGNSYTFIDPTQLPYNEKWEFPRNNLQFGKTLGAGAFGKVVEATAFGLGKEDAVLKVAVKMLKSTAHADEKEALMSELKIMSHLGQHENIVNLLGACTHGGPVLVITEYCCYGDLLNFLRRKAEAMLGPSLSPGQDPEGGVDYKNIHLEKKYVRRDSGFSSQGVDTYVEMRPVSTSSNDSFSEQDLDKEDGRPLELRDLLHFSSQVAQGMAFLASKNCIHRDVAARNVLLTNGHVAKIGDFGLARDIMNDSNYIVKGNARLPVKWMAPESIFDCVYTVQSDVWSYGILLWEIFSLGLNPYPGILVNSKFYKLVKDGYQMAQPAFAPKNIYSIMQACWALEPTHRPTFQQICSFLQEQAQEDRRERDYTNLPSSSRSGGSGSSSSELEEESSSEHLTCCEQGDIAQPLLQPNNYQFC
value kind: pIC50
# reply with the number alone; pIC50 is -log10 of concentration in mol/L

Notebook entry, Macrophage colony-stimulating factor 1 receptor (Homo sapiens) assay: pIC50 of COc1cc2nccc(Oc3ccc4c(C(=O)Nc5ccc(Cl)cc5)cccc4c3)c2cc1OC = ?
7.70

---

# test name: Volume of distribution at steady state in cynomolgus monkey at 1 mg/kg, iv
# Type: ADME, organism-based, Macaca fascicularis
# Design: dose 1 mg/kg, route intravenous
# conditions used: in vivo, read-out: Vdss
value kind: Vd (L/kg)
The reply should be a number in L/kg, with the unit left off.

Dear colleague, I am looking for the recorded Vd of the following compound: COc1cc2nccc(Oc3ccc4c(C(=O)Nc5ccc(Cl)cc5)cccc4c3)c2cc1OC.CS(=O)(=O)O
4.3

---

# test name: Intrinsic clearance in human liver microsomes
# Assay type: ADME, Microsome
value kind: microsomal CLint (µL/min/mg)

{"smiles entry": "COc1cc2nccc(Oc3ccc4c(C(=O)Nc5ccccn5)cccc4c3)c2cc1OC", "unit of measure": "µL/min/mg", "measured result": 80}
{"smiles entry": "COc1cc2nccc(Oc3ccc4c(C(=O)Nc5ccncc5)cccc4c3)c2cc1OC", "unit of measure": "µL/min/mg", "measured result": 30}
{"smiles entry": "COc1cc2nccc(Oc3ccc4c(C(=O)Nc5ccc(Cl)cc5)cccc4c3)c2cc1OC", "unit of measure": "µL/min/mg", "measured result": 30}
{"smiles entry": "COc1cc2nccc(Oc3ccc4c(C(=O)Nc5ccc(Cl)cc5)cccc4c3F)c2cc1OC", "unit of measure": "µL/min/mg", "measured result": 30}

P = COc1cc2nccc(Oc3ccc4c(C(=O)Nc5cc(C)no5)cccc4c3)c2cc1OC
Q = COc1cc2nccc(Oc3ccc4c(C(=O)Nc5cccnc5)cccc4c3)c2cc1OC
Sorting ascending by microsomal CLint, which comes first: P or Q ? Returns: label corresponding to the selected item.
P

---

# test name: Mean retention time in cynomolgus monkey at 1 mg/kg, iv
# Type: ADME, organism-based, Macaca fascicularis
# Design: dose 1 mg/kg, route intravenous
# conditions used: in vivo
value kind: MRT (h)
Quick note: give the figure in h, leave out the unit.

Consider the molecule COc1cc2nccc(Oc3ccc4c(C(=O)Nc5ccc(Cl)cc5)cccc4c3)c2cc1OC.CS(=O)(=O)O and give its measured MRT.
22

---

# test name: Volume of distribution at steady state in Sprague-Dawley rat at 0.25 mg/kg, iv
# Format: ADME, organism-based
# Parameters: dose 0.25 mg/kg, route intravenous
# conditions used: in vivo, read-out: Vdss
value kind: Vd (L/kg)
State the answer as a number, implicitly in L/kg.

Recorded Vd of COc1cc2nccc(Oc3ccc4c(C(=O)Nc5ccc(Cl)cc5)cccc4c3F)c2cc1OC , please.
2.4
